- study target: C3b (component obtained after hydrolysis of complement component 3, C3) (UniProt P01024)
- assay protocol: BLI (Octet RED96), GFP tagged Nanofitin captured on anti-GFP Nanofitin biosensor, C3b in solution, 1:1 fit
Kd reference
measured attribute: Kd

INSERT INTO measurements (binder, measured_attribute, data_value) VALUES
  ('H03 (SEQ ID NO: 26), GFP tagged anti-C3 Nanofitin (designed binder, not shown: large carriers) MVKVKFAATGEEKEVDTSKIANVYRVGKDVLFSYDDNGKIGWGYVSEKDAPKELLDLLARAERE', 'Kd', '2.89 nM'),
  ('B10 (SEQ ID NO: 25), GFP tagged anti-C3 Nanofitin (designed binder, not shown: large carriers) MVKVKFDATGEEKEVDTSKISAVYRTGKDVLFSYDDNGKIGWGYVSEKDAPKELLDLLARAERE', 'Kd', '7.31 nM');
